tested on: MOLT-4 leukemia; experiment: NCI-60 one-dose screen, 48 h (100 = growth as untreated, 0 = no growth, -100 = all killed); settings: 10 µM unless noted
Compounds without any hit were thinned out: in the full panel of roughly 83,000, 20% have a hit.
# growth per record follows
Your answer is read as %, so omit the unit and give the number.

IN: Quick one: give measured growth for CNCCCC12CCC(c3ccccc31)c1ccccc12
OUT: 89.6

IN: Quick one: give measured growth for CC[C@H](C)C(=O)O[C@H]1CCC=C2C=C[C@H](C)[C@H](CC[C@@H]3CC=CC(=O)O3)[C@H]21
OUT: 45.6

IN: Quick one: give measured growth for O=C(Nc1ccc(Br)cc1F)c1cc(Br)ccc1O
OUT: 1.26

IN: Quick one: give measured growth for CCCCCCn1c(-c2ccc(C(=O)O/N=C(\N)c3ccc(OC)cc3)cc2)nc(-c2ccccc2)c1-c1ccccc1
OUT: -35.7

IN: Quick one: give measured growth for O=C(Nc1ccc(Cl)cc1F)c1cc(Cl)ccc1O
OUT: -42.4

Continuing:
IN: Quick one: give measured growth for [O-][n+]1c2ccccc2[n+]([O-])c2c3ccccc3[nH]c21
OUT: 98.8

IN: Quick one: give measured growth for CCS(=O)(=O)c1ncnc2nc[nH]c12
OUT: 103

IN: Quick one: give measured growth for O=C(N/N=C/[C@H](O)[C@@H](O)[C@@H](O)[C@H](O)CO)c1ccc(NC(=O)c2cccnc2)cc1
OUT: 114

IN: Quick one: give measured growth for CCOC(=O)CC1C(COC(=O)NC)OC(n2cnc3c(NC(=O)Nc4ccccc4)ncnc32)C1O[Si](C)(C)C(C)(C)C (stereo not given)
OUT: 34.3

IN: Quick one: give measured growth for C=C1C(=O)O[C@H]2[C@H]1CC/C(COC(=O)C(C)c1ccc(CC(C)C)cc1)=C\CC[C@@]1(C)O[C@@H]21 (stereo not given in full)
OUT: -3.37
